Catalogue of TGI readings, one per entry.
Test system: RPMI-8226 leukemia
assayExplanation: NCI tumour cell line growth inhibition, 48 h

[
  {
    "compound": "CSC1=NN(C(C)=O)C(C(OC(C)=O)C(OC(C)=O)C(OC(C)=O)C(COC(C)=O)OC(C)=O)S1 (stereo not given)",
    "targetOrSystem": "RPMI-8226 leukemia",
    "TGI": "> 100 µM"
  },
  {
    "compound": "CC12OC(CC(O)C1O)n1c3ccccc3c3c4c(c5c6ccccc6n2c5c31)C(=O)N(CCN1CCOCC1)C4=O (stereo not given)",
    "targetOrSystem": "RPMI-8226 leukemia",
    "TGI": "9.87 µM"
  },
  {
    "compound": "Cc1ccc(N2C(=O)C3c4[nH]c5ccc(C)cc5c4C4CCC(C(C)(C)C)CC4C3C2=O)cc1 (stereo not given)",
    "targetOrSystem": "RPMI-8226 leukemia",
    "TGI": "46.3 µM"
  },
  {
    "compound": "O=Cc1ccc2ccocc1-2",
    "targetOrSystem": "RPMI-8226 leukemia",
    "TGI": "> 100 µM"
  },
  {
    "compound": "COc1ccc(N2C(=O)C(Cl)C2c2cc3cc(Br)ccc3nc2Cl)cc1 (stereo not given)",
    "targetOrSystem": "RPMI-8226 leukemia",
    "TGI": "21.6 µM"
  },
  {
    "compound": "COC(=O)c1c(O)ccc(O)c1C(C(C)=O)C(C)=O",
    "targetOrSystem": "RPMI-8226 leukemia",
    "TGI": "> 100 µM"
  },
  {
    "compound": "CN(C)[C@@H]1C(=O)C(C(=O)NCNc2nc3n[nH]nc3c(=O)[nH]2)=C(O)[C@@]2(O)C(=O)C3=C(O)c4c(O)cccc4[C@@](C)(O)[C@H]3C[C@@H]12",
    "targetOrSystem": "RPMI-8226 leukemia",
    "TGI": "6.7 µM"
  },
  {
    "compound": "CCC12C=CCN(CCc3c([nH]c4ccccc34)/C=C\\1)C2 (stereo not given)",
    "targetOrSystem": "RPMI-8226 leukemia",
    "TGI": "> 100 µM"
  },
  {
    "compound": "O/N=C(\\CC(O)(C(F)(F)F)C(F)(F)F)c1cccs1",
    "targetOrSystem": "RPMI-8226 leukemia",
    "TGI": "> 10 µM"
  },
  {
    "compound": "CNc1cc([N+](=O)[O-])ccc1C(=O)N1CCC[C@H]1CO",
    "targetOrSystem": "RPMI-8226 leukemia",
    "TGI": "> 100 µM"
  },
  {
    "compound": "ICC1CCCO1 (stereo not given)",
    "targetOrSystem": "RPMI-8226 leukemia",
    "TGI": "> 100 µM"
  },
  {
    "compound": "Cc1ccc(Nc2cccc3c2C(=O)c2cccc(Nc4ccc(C)cc4S(=O)(=O)O)c2C3=O)c(S(=O)(=O)O)c1",
    "targetOrSystem": "RPMI-8226 leukemia",
    "TGI": "> 100 µM"
  },
  {
    "compound": "COC(=O)c1cc(CC2Cc3cc4c(cc3C2=O)CCC4)cc2c1CCC2 (stereo not given)",
    "targetOrSystem": "RPMI-8226 leukemia",
    "TGI": "> 100 µM"
  },
  {
    "compound": "CC(=O)OC1CCC2OOC1O2 (stereo not given)",
    "targetOrSystem": "RPMI-8226 leukemia",
    "TGI": "> 100 µM"
  },
  {
    "compound": "Cc1ccc(C[As+](c2ccccc2)(c2ccccc2)c2ccccc2)cc1",
    "targetOrSystem": "RPMI-8226 leukemia",
    "TGI": "3.24 µM"
  },
  {
    "compound": "NS(=O)(=O)c1ccc(N=Nc2ccc[nH]c2=O)cc1",
    "targetOrSystem": "RPMI-8226 leukemia",
    "TGI": "> 100 µM"
  },
  {
    "compound": "CC1=NN(c2ccc(S(=O)(=O)O)cc2)C2(C1)C(Cl)C(=O)N2c1nc2ccccc2s1 (stereo not given)",
    "targetOrSystem": "RPMI-8226 leukemia",
    "TGI": "> 100 µM"
  },
  {
    "compound": "COC(=O)[C@]12CC[C@@H](C)[C@H](C)[C@@H]1C1=CC[C@@H]3[C@@]4(C)C(C=O)=C[C@@](C)(CO)[C@@H]4[C@H](O)C[C@@]3(C)[C@]1(C)CC2",
    "targetOrSystem": "RPMI-8226 leukemia",
    "TGI": "7.74 µM"
  },
  {
    "compound": "Cn1c(=O)c2ccccc2[n+]2c(-c3cccc([N+](=O)[O-])c3)csc12",
    "targetOrSystem": "RPMI-8226 leukemia",
    "TGI": "> 100 µM"
  },
  {
    "compound": "CC(Br)CN1CCOCC1 (stereo not given)",
    "targetOrSystem": "RPMI-8226 leukemia",
    "TGI": "> 100 µM"
  }
]
